system: Vero E6; experiment: cell viability relative to DMSO; higher = less toxic; conditions: 72 h; 10 nM
Recorded measurements of cell viability, one per entry
property: cell viability (%)

# compound, property, endpoint unit, assay value
data = [
    ("O=C(O)C(O)Cc1ccc(O)c(O)c1 (stereo not given) [sodium-danshensu]", "cell viability", "%", 102),
    ("Nc1ncnc2c1ncn2[C@@H]1O[C@H](COP(=O)(O)O)[C@@H](O)[C@H]1O [adenosine-phosphate]", "cell viability", "%", 108),
    ("CNCc1ccc(C)c(NC(=O)c2ccc(Nc3nc(-c4ccccc4)c4ccccc4n3)cc2)c1", "cell viability", "%", 99.6),
    ("Cn1c2c(c3ccccc31)CCNCC2", "cell viability", "%", 103),
    ("C[C@]12CC[C@@H]3c4ccc(O)cc4CC[C@H]3[C@@H]1C[C@@H](O)[C@@H]2O", "cell viability", "%", 99.1),
]

Every entry's value here was drawn from the supplement of paper PMC13380429.
